Could you please report measured AC35 for the items listed next?
- Test system: HepG2 viability, CellTiter-Glo ATP luminescence, 72 h
- assay_info: viability loss in human hepatoma cells – cell-based, CellTiter-Glo luminescence, cherry-pick, set 2, cytotoxicity control, dose response (AID 743395)

Consider the worked cases shown below.
compound: COc1ccc(CC(=O)NCc2ccc(-n3cccc3)cc2)cc1OC
AC35: 9.29 µM

compound: CCCC(=O)NC(c1ccc(N(C)C)cc1)c1ccc2cccnc2c1O (stereo unspecified)
AC35: 1.18 µM

compound: CC(=O)N1CCc2c(sc(NC(=O)c3ccc4c(c3)OCCO4)c2C#N)C1
AC35: 19.4 µM

compound: COc1cccc(Nc2nc(-c3sc(NC(=O)c4ccccc4)nc3C)cs2)c1
AC35: 6.58 µM

compound: Oc1ccc2ccccc2c1C=NNc1ccccn1
AC35: 7.59 µM

For "Cn1c(C(=O)c2ccccc2[N+](=O)[O-])nc2ccccc21" , what is its reported AC35?
14.3 µM
